METHOD NOTES: chemical genetic growth profiling, strain panel (AID 1159580);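 note: tested at 20 µM; growth read once vehicle control cultures reached saturation at 30 °C; 1 = growth at the plate median or of vehicle wells; lower values mean less growth of the strain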
TEST SETTINGS: S. cerevisiae deletion strains, growth OD, locus YER155C, strain BEM2, stronger effect = lower value
Screen size: about 5,500 compounds; about 2,000 (36%) were called active. Not shown: some 18% with an inconclusive outcome. Some of the results follow.
OBSERVABLE: normalized growth
API note: the answer field is a bare number with no unit suffix.

Below, each entry is followed by its recorded normalized growth result.
COMPOUND	normalized growth
O=C(O[C@@H]1Cc2c(O)cc(O)cc2O[C@@H]1c1cc(O)c(O)c(O)c1)c1cc(O)c(O)c(O)c1	0.955
Oc1cc(O)c2c(c1)O[C@H](c1ccc(O)c(O)c1)[C@H](O)C2	1
O=C(OCC(O)CO)c1ccccc1Nc1ccnc2cc(Cl)ccc12 (stereo not drawn)	0.988
CN1CC(=O)N=C1N	1.01
Oc1cc(O)c2c(c1)OC(c1cc(O)c(O)c(O)c1)C(O)C2c1c(O)cc(O)c2c1OC(c1cc(O)c(O)c(O)c1)C(O)C2c1c(O)cc(O)c2c1OC(c1cc(O)c(O)c(O)c1)C(O)C2 (stereo not drawn)	1.02
O=C(Oc1cc(O)cc2c1C[C@@H](OC(=O)c1cc(O)c(O)c(O)c1)[C@@H](c1cc(O)c(O)c(O)c1)O2)c1cc(O)c(O)c(O)c1	0.775
COc1cc(OC)c2c(c1)O[C@H](c1cc(OC)c(OC)c(OC)c1)[C@H](OC(=O)c1cc(OC)c(OC)c(OC)c1)C2	1

Kindly review the next compound as well.
Look up normalized growth: "CC(=O)Oc1cc(OC(C)=O)c2c(c1)O[C@H](c1ccc(OC(C)=O)c(OC(C)=O)c1)[C@@H](OC(C)=O)C2" 1

Ref: PubChem BioAssay AID1159580
